molecular target: BACE (Homo sapiens, UniProt P56817); test: Isothermal titration calorimetry (ITC) of BACE and peptides; type: binding; set-up: The cDNA for the catalytic domain of human BACE (residues 1-460) was PCR-amplified; human IgG1 heavy chain (C, cleaved yes); thrombin cleavage site (C); made in house; host or cells: CHO DG44 cells (stably transfected, secreted); conditions: pH 5.3, 37° C.; sample cell: CHO BACE
Sequence (P56817 46-460 limits assumed): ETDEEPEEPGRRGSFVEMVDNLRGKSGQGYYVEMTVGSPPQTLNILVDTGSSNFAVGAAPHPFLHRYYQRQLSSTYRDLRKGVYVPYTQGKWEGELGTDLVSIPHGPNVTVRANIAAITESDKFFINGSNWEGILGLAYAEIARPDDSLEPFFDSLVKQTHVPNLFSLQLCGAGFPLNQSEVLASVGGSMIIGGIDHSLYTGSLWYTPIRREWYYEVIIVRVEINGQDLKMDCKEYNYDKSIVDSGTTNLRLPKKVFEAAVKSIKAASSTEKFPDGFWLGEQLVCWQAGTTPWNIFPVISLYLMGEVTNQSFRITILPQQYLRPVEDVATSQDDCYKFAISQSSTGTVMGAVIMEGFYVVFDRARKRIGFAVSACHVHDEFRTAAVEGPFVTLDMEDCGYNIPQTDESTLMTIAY
Attribute measured: Kd (nM)

INSERT INTO measurements (substance, attribute_measured, unit_string, val) VALUES
  ('Ac-NLTTYPYFIPLP-OH [BMS-561871]', 'Kd', 'nM', 380);

* * *

target: BACE (Homo sapiens); assay: Isothermal titration calorimetry (ITC) of BACE and peptides; assay type: binding; set-up: The cDNA for the catalytic domain of human BACE (residues 1-460) was PCR-amplified; human IgG1 heavy chain (C, cleaved yes); thrombin cleavage site (C); made in house; host or cells: CHO DG44 cells (stably transfected, secreted); details: pH 5.3, 37° C.; sample cell: CHO BACE: OM99-2 (10-fold excess added first)
Attribute measured: Kd (nM)

INSERT INTO results (substance, target_or_test_system, attribute_measured, unit_string, val) VALUES
  ('Ac-NLTTYPYFIPLP-OH [BMS-561871]', 'BACE (Homo sapiens)', 'Kd', 'nM', 280);

* * *

target: BACE (Homo sapiens, UniProt P56817); assay: Competitive binding assay, displacement of labeled EBP from BACE, fluorescence anisotropy; parameters: The cDNA for the catalytic domain of human BACE (residues 1-460) was PCR-amplified; human IgG1 heavy chain (C, cleaved yes); thrombin cleavage site (C); made in house; host or cells: CHO DG44 cells (stably transfected, secreted); details: pH 4.5; displacement of Molecule X; read-out: binding constant (Kd) of unlabeled peptide by competition
Attribute measured: Kd (nM)

INSERT INTO results (substance, attribute_measured, val) VALUES
  ('Ac-NLTTYPYFIPLP-OH [BMS-561871]', 'Kd', 1070);

* * *

molecular target: BACE (Homo sapiens); assay: Isothermal titration calorimetry (ITC) of BACE and peptides; format: binding; parameters: The cDNA for the catalytic domain of human BACE (residues 1-460) was PCR-amplified; human IgG1 heavy chain (C, cleaved yes); thrombin cleavage site (C); made in house; host or cells: CHO DG44 cells (stably transfected, secreted); conditions: 25° C., 50 mM NaOAc, pH 4.5
pKd: −log10 of the molar value.
Attribute measured: pKd

INSERT INTO results (substance, val) VALUES
  ('Ac-HWPFFIRS-NH2 [BMS-655507]', 5.79);
